Source: the Immune Epitope Database (IEDB)

system-under-test: HLA-A*11:01
measurement-protocol: IEDB peptide-MHC binding, purified MHC/competitive/radioactivity; bounds were set here for any values at or beyond the usual limits of such assays
conditions-used: source organism: Influenza A virus (A/Puerto Rico/8/1934(H1N1))
Below: a set of entries, each annotated with reported log10(IC50).
Plainly stated, the numbers are log10 of IC50 given in nM.

Please review the following examples before continuing.
LTEKEGSYPK	2.08
PVTIGECPK	0.41
NVKNLYEKVK	1.71

// lookup log10(IC50) for `RMGVQMQRFK`
1.97

// lookup log10(IC50) for `GTKVVPRGK`
1.86

// lookup log10(IC50) for `GVTAACSHAGK`
1.48

----------
system-under-test: HLA-A*11:01
measurement-protocol: IEDB peptide-MHC binding, purified MHC/competitive/radioactivity; bounds were set here for any values at or beyond the usual limits of such assays
conditions-used: source organism: Plasmodium falciparum
readout-name: pIC50
Hey, just a heads up that pIC50 is the negative log base 10 of the concentration in molar.

// lookup pIC50 for `LACAGLAYK`
6.68

----------
system-under-test: HLA-A*11:01
measurement-protocol: IEDB peptide-MHC binding, purified MHC/competitive/radioactivity; bounds were set here for any values at or beyond the usual limits of such assays
conditions-used: source organism: Human immunodeficiency virus 1
Below: a set of entries, each annotated with reported pIC50.
Hey, just a heads up that pIC50 is the negative log base 10 of the concentration in molar.

// lookup pIC50 for `AVDLSHFLK`
8.30

// lookup pIC50 for `RAKWNNTLK`
6.73

// lookup pIC50 for `MTKILEPFR`
6.42

// lookup pIC50 for `QMAVFIHNFK`
8.08

// lookup pIC50 for `GIPHPAGLK`
7.46

// lookup pIC50 for `ASQIYAGIK`
7.74
